pIC50: recorded values
Target: T1, Full-length human TIGIT on CHO-K1 cells (CHO-K1 human TIGIT) (human, UniProt Q495A1 22-244)
T1 construct: NCBI XP_024309156.1; the entry includes the signal peptide (limits not recoverable); The strain (high, medium, low) is named under assay; also called high expression strain 1D2; medium expression strain 2D10
T1 sequence: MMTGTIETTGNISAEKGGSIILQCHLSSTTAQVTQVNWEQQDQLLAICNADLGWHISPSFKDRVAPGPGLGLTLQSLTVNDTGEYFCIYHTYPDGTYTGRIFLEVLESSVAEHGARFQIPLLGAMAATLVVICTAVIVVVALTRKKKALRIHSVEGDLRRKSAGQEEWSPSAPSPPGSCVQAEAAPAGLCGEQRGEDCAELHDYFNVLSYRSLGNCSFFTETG
Test: FACS; blocking of Bio-CD155-His binding to CHO-K1 human TIGIT cells
pIC50: −log10 of the molar value.

BINDER: TIGIT-005-H2L1d (antibody, V domains shown, Humanized anti-TIGIT antibody with NG-site mutation in VL) VH: EVQLVQSGAEVKKPGASVKVSCKASGYAFTNYLIEWVRQAPGQRLEWMGVINPGSGGTNYKEKFKGRVTITADKSSSTAYMELSSLRSEDTAVYYCARGEYFFFDYWGQGTTVTVSS VL: DIVMTQSPDSLAVSLGERATINCKASQHVSNAVAWYQHKPGQSPKLLIYSASYRYTGVPDRFSGSGSGTDFTLTISSLQAEDVAVYYCQQHYNTPHTFGGGTKVEIK
pIC50: 9.82
--
BINDER: TIGIT-070-H1L1 (antibody, V domains shown, Humanized anti-TIGIT antibody) VH: EVQLVQSGAEVKKPGASVKVSCKASGYTFTNYYMHWVRQAPGQRLEWMGRIDPDSGGSKYNEKFKSRVTITVDKSASTAYMELSSLRSEDTAVYYCAREGHYGFYSDYWGQGTTVTVSS VL: DIQMTQSPSSLSASVGDRVTITCRVSENIYSYLAWYQQKPGKSPKLLIYNAKTLAEGVPSRFSGSGSGTDFTLTISSLQPEDFATYYCQHHYGNPLTFGPGTKVDIK
pIC50: 9.67
--
BINDER: TIGIT-002-H4L3 (antibody, V domains shown, Humanized anti-TIGIT antibody) VH: EVQLQESGPGLVKPSETLSLTCAVSGYSITSDSWNWIRQPPGKKLEYIGYISYSGNTYYNPSLKSRVTISRDTSKNQFSLKLSSVTAADTAVYYCARLDFSNYGGAVDYWGQGTTVTVSS VL: DIVMTQSPDSLAVSLGERATINCKASQNVRTAVAWYQQKPGQSPKLMIYSASYRYTGVPDRFSGSGSGTDFTLTISSLQAEDVAVYYCQQYYTTPWTFGGGTKVEIK
pIC50: 9.86
--
BINDER: TIGIT-006-H5L3 (antibody, V domains shown, Humanized anti-TIGIT antibody) VH: EVQLQESGPGLVKPSETLSLTCAVSGYSMTSDYWNWIRQPPGKKLEYIGYISYSGRTYYNPSLKSRVTISRDTSKNQFSLKLSSVTAADTAVYYCARGDYSNYGGAMYDWGQGTTVTVSS VL: DIVMTQSPDSLAVSLGERATINCRASQGVSTTIAWYQQKPGQSPKLLIYSASYRYTGVPRFSGSGSGTDFTLTISSLQAEDVAVYYCQQYYSSPFTFGGGTKVEIK
pIC50: 9.77
